// cross-source set; read-out = pKi; system = Adenosine receptor A2a (Rattus norvegicus)
Sequence (P30543 whole entry): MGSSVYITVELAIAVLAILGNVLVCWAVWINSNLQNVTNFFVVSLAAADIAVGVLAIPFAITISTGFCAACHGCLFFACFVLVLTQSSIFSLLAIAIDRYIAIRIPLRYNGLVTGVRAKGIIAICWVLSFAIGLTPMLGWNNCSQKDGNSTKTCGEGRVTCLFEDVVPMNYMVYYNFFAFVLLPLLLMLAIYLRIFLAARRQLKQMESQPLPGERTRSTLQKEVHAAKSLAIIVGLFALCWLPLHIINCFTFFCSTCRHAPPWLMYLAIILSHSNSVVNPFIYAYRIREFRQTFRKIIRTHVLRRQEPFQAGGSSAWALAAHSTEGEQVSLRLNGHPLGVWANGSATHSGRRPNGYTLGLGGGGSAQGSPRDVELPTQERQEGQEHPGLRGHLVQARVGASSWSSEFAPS
pKi: −log10 of the molar value.
Experimental Readout: pKi

Field: example entries. Status: answers known.
{"Compound": "Nc1nc(NC[C@H]2CCCN2Cc2c(F)ccc(F)c2F)nc2nc(-c3ccco3)nn12", "Experimental Readout": "pKi", "Value Reported": 8.40}
{"Compound": "Cn1c(=O)c2c(nc3n2CCN([C@@H]2CCCc4ccccc42)C3)n(C)c1=O", "Experimental Readout": "pKi", "Value Reported": 6.29}
{"Compound": "CC(Nc1nc(N)c2cnn(-c3ccccc3)c2n1)C(N)=O (racemic)", "Experimental Readout": "pKi", "Value Reported": 6.03}
{"Compound": "Cn1c(=O)c2c(nc(/C=C/C=C/c3cccc(Br)c3)n2C)n(C)c1=O", "Experimental Readout": "pKi", "Value Reported": 7.23}
{"Compound": "CCNC(=O)[C@H]1OC(n2cnc3c(N)nc(C#CN(C)CCc4ccccc4)nc32)[C@H](O)[C@@H]1O (stereo partly specified)", "Experimental Readout": "pKi", "Value Reported": 7.15}

1. Nc1nc(-c2ccccc2)nc2c1c1ccccc1n2-c1ccccc1
2. CCC1CN2C(=O)N(C)c3[nH]c(-c4ccccc4)nc3C2=N1 (stereo unspecified)
Request: Which is greater in pKi, the first item 1 or the second item 2 ? Please reply using the label of the selected record.
Response: 2
(2: 5.51, 1: 5.08)

1. C[C@@H](Cc1ccccc1)Nc1ncnc2c1ncn2[C@@H]1O[C@H](CO)C[C@H]1O
2. CC(c1ccccc1)N1CCCn2c1nc1c2c(=O)n(C)c(=O)n1C (stereo unspecified)
Request: Please indicate which entry, 1 or 2 , has the lower recorded pKi value. Please reply using the label of the selected record.
Response: 1
(1: 4.24, 2: 5.55)

I. C=CCn1c(=O)c2c(nc(-c3ccccc3)n2CCCl)n(C)c1=O
II. CC1CN=C2c3c(ncn3C)N(C)C(=O)N21 (stereo unspecified)
III. CC[C@@H]1CN2C(=O)N(C)c3[nH]c(/C=C/c4ccccc4)nc3C2=N1
IV. Nc1nc(NC[C@H]2CCCN2Cc2cc(F)ccc2F)nc2nc(-c3ccco3)nn12
Request: Order the records so the highest pKi appears first and the lowest last. Thanks in advance for listing the labels in the requested order.
Response: IV, III, I, II

a. Nc1ncnc2c1ncn2[C@@H]1O[C@H](COS(N)(=O)=O)[C@@H](O)[C@H]1O
b. CCCCn1c(=O)c2nc[nH]c2n(Cc2ccccc2)c1=O
c. Nc1nc(NC[C@H]2CCCN2Cc2ccncc2)nc2nc(-c3ccco3)nn12
Request: Please put the entries in order of rising pKi. Thanks in advance for listing the labels in the requested order.
Response: a, b, c
(a: 5.30, b: 5.92, c: 7.43)
